Procedure Text: P. berghei load reduction in hepatocytes – cell-based, HepG2, luciferase luminescence, HepG2 viability, primary screen (AID 624349)
Condition Notes: P. berghei liver stage in HepG2, luciferase luminescence, concentration not given here; measured here: HepG2 viability without parasites
The label is T for viability below 70% and F for viability equal to or exceeding 70%.

Take the compound CN[C@@H]1C(O[C@H]2O[C@H](CO)[C@@H](N)[C@H](O)[C@H]2O)O[C@H]2C[C@@H](N)[C@@H](O[C@H]3[C@H](O)[C@@H](O)[C@H](N)C[C@@H]3N)OC2[C@@H]1O (stereo not given in full) and say whether its viability is less than 70%.
F

Take the compound O=C1NC(=O)c2c1c1c3ccccc3[nH]c1c1[nH]c3cc(Br)ccc3c21 and say whether its viability is less than 70%.
F

Take the compound Cn1sc(=O)n(Cc2ccccc2)c1=O and say whether its viability is less than 70%.
F

Take the compound CC(C)C[C@@H](NC(=O)[C@H](Cc1ccccc1)NC(=O)c1cnccn1)B(O)O and say whether its viability is less than 70%.
T

Data origin: PubChem BioAssay
